- Target system: T1, 4H2903-AA
- T1 chain: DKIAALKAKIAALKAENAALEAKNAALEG
- Measurement protocol: two-hybrid library CCmax;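 further: natural log of median RNA to DNA barcode read ratio; higher means stronger binding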
- Applied conditions: mean of both orientations
Collected interaction score values appear next to each entry.
Form field (numeric): enter value without unit.

Before answering, review these 2 worked examples.
>>> observed("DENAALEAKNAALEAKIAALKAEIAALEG [4H1449-AA]")
-1.54
>>> observed("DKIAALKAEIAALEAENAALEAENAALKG [4H2580-AA]")
-0.221

Look up and state reported interaction score for DKIAALKAENAALEAKIAALEAKNAALKG [4H2728-AA]
-1.25
